Molecular target: KRAS G12D (Homo sapiens (Human), UniProt P01116+P62937, G12D)
Sequence (P01116 other isoform, or with tags, fused parts or gaps G12D, one chain of several): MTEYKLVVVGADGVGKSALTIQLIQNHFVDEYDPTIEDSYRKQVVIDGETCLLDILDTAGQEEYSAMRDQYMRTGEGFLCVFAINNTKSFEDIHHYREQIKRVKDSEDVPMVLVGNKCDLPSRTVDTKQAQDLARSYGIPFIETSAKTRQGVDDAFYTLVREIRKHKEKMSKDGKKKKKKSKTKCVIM
Experiment: Ras-Raf disruption/FRET/MOA assay, KRAS G12D
Assay type: biochemical
So I've got a bunch of molecules here, and I need their IC50 values.

chemical-structure | IC50
CCn1c(-c2cnccc2COC)c2c3cc(ccc31)-c1cc(O)cc(c1)C[C@H](NC(=O)[C@H](C(C)C)N(C)C(=O)CN(C)C(=O)[C@@H]1N[C@H]1c1ccc(OC)cc1)C(=O)N1CCC[C@H](N1)C(=O)OCC(C)(C)C2 | 100 to 1000 nM

Now for the molecule whose IC50 we want.
Fill blank: measured IC50 of the molecule "CCn1c(-c2cnccc2COC)c2c3cc(ccc31)-c1cc(O)cc(c1)C[C@H](NC(=O)[C@H](C(C)C)N(C)C(=O)CN(C)C(=O)[C@H]1N[C@@H]1c1ccccc1)C(=O)N1CCC[C@H](N1)C(=O)OCC(C)(C)C2" is ____.
100 to 1000 nM

###

Target: KRAS G12C (Homo sapiens (Human), UniProt P01116+P62937, G12C)
Sequence (P01116-2 other isoform, or with tags, fused parts or gaps G12C, one chain of several): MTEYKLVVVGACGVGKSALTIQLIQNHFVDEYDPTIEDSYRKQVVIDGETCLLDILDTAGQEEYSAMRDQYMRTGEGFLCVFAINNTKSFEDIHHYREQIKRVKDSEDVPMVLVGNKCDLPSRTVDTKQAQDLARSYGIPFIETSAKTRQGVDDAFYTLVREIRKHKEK
Test: Ras-Raf disruption/FRET/MOA assay (BRAF RBD, Cyclophilin A)
Format: biochemical
Conditions: read-out: KRAS G12C FRET IC50
pIC50: −log10 of the molar value.
quantity-measured: pIC50

Sample answers from the record:
compound | pIC50
CCO[C@@H]1c2nc(cs2)-c2ccc3c(c2)c(c(-c2cccnc2[C@H](C)OC)n3CC)CC(C)(C)COC(=O)[C@@H]2CCCN(N2)C(=O)[C@H]1NC(=O)[C@H]1[C@H](C)[C@@H]1c1cn(C)cn1 [Compound A507] | 7.00 to 8.00
CCn1c(-c2cccnc2[C@H](C)OC)c2c3cc(ccc31)-c1cc(O)cc(c1)C[C@H](NC(=O)C13CCCC1C3(F)F)C(=O)N1CCC[C@H](N1)C(=O)OCC(C)(C)C2 (stereo partly drawn) [Compound A180] | 5.00 to 6.00
CCn1c(-c2cccnc2[C@H](C)OC)c2c3cc(ccc31)-c1csc(n1)C[C@H](NC(=O)[C@H](C(C)C)N(C)C(=O)N1CC([C@H](CO)OC)C1)C(=O)N1CCC[C@H](N1)C(=O)OCC(C)(C)C2 [Compound A515] | 7.00 to 8.00

List pIC50 for every entry below, keeping the order given.
1. CCn1c(-c2cccnc2[C@H](C)OC)c2c3cc(ccc31)-c1csc(n1)C[C@H](NC(=O)[C@H](C(C)C)N1CCC3(COC3)C1)C(=O)N1CCC[C@H](N1)C(=O)OCC(C)(C)C2 [Compound A561]
2. CCn1c(-c2cccnc2[C@H](C)OC)c2c3cc(ccc31)-c1csc(n1)C[C@H](NC(=O)[C@H](C(C)C)N(C)C(=O)[C@H]1CCN(S(C)(=O)=O)C1)C(=O)N1CCC[C@H](N1)C(=O)OCC(C)(C)C2 [Compound A237]
3. CCn1c(-c2cccnc2[C@H](C)OC)c2c3cc(ccc31)-c1cc(O)cc(c1)C[C@H](NC(=O)[C@H](C(C)C)N(C)C(=O)C13CC(CO1)C3)C(=O)N1CCC[C@H](N1)C(=O)OCC(C)(C)C2 [Compound A406]
4. CCn1c(-c2cccnc2[C@H](C)OC)c2c3cc(ccc31)-c1cccc(c1)C[C@H](NC(=O)[C@H](C(C)C)N(C)C(=O)[C@@H]1CCN(C3COC3)C1)C(=O)N1CCC[C@H](N1)C(=O)OCC(C)(C)C2 [Compound A206]
5. CCn1c(-c2cnccc2COC)c2c3cc(ccc31)-c1cc(O)cc(c1)C[C@H](NC(=O)[C@H](C(C)C)N(C)C(=O)N1CCOCC1)C(=O)N1CCC[C@H](N1)C(=O)OCC(C)(C)C2 [Compound A257]
6. CCn1c(-c2cccnc2[C@H](C)OC)c2c3cc(ccc31)-c1csc(n1)C[C@H](NC(=O)[C@H](C(C)C)N(C)C(=O)N1C3COCC1C3)C(=O)N1CCC[C@H](N1)C(=O)OCC(C)(C)C2 [Compound A540]

7.00 to 8.00
5.00 to 6.00
7.00 to 8.00
5.00 to 6.00
6.00 to 7.00
7.00 to 8.00

###

So I've got a bunch of compounds here, and I need their pIC50 values.
Target: KRAS G12V (Homo sapiens (Human), UniProt P01116+P62937, G12V)
Sequence (P01116 other isoform, or with tags, fused parts or gaps G12V, one chain of several): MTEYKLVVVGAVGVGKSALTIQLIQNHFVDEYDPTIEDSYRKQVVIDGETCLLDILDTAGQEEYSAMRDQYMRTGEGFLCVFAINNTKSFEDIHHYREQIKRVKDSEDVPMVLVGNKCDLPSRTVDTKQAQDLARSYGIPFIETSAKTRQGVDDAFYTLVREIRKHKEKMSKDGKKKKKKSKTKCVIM
Assay: Ras-Raf disruption/FRET/MOA assay (BRAF RBD, Cyclophilin A)
Format: biochemical
Settings: read-out: KRAS G12V FRET IC50
pIC50: −log10 of the molar value.

Sample answers from the record:
chemical-structure | experimental-system | pIC50
CCn1c(-c2cnccc2COC)c2c3cc(ccc31)-c1cc(O)cc(c1)C[C@H](NC(=O)[C@H](C(C)C)N1CCCC1=O)C(=O)N1CCC[C@H](N1)C(=O)OCC(C)(C)C2 | KRAS G12V (Homo sapiens (Human), UniProt P01116+P62937, G12V) | 6.00 to 7.00
CCn1c(-c2cccnc2[C@H](C)OC)c2c3cc(ccc31)-c1cc(O)cc(c1)C[C@H](NS(=O)(=O)C1CC1)C(=O)N1CCC[C@H](N1)C(=O)OCC(C)(C)C2 | KRAS G12V (Homo sapiens (Human), UniProt P01116+P62937, G12V) | < 5.00

Now for the compound whose pIC50 we want.
Fill blank: measured pIC50 of the compound "CCn1c(-c2cccnc2[C@H](C)OC)c2c3cc(ccc31)-c1csc(n1)C[C@H](NC(=O)[C@H](C(C)C)N(C)C(=O)N1CC3(CC(N(C)C4COC4)C3)C1)C(=O)N1CCC[C@H](N1)C(=O)OCC(C)(C)C2" is ____.
6.00 to 7.00

###

Target: KRAS G12V (Homo sapiens (Human), UniProt P01116+P62937, G12V)
Assay: Ras-Raf disruption/FRET/MOA assay (BRAF RBD, Cyclophilin A)
Format: biochemical
Details: read-out: KRAS G12V FRET IC50
pIC50: −log10 of the molar value.
So I've got a bunch of compounds here, and I need their pIC50 values.

Sample answers from the record:
chemical-structure | result
CCn1c(-c2cnccc2COC)c2c3cc(ccc31)-c1cc(O)cc(c1)C[C@H](NC(=O)[C@H](C(C)C)N(C)C(=O)[C@H]1CNC[C@H]1C(F)(F)F)C(=O)N1CCC[C@H](N1)C(=O)OCC(C)(C)C2 | 5.00 to 6.00
CCn1c(-c2cccnc2[C@H](C)OC)c2c3cc(ccc31)-c1cc(O)cc(c1)C[C@H](NS(=O)(=O)C1CS(=O)(=O)C1)C(=O)N1CCC[C@H](N1)C(=O)OCC(C)(C)C2 | < 5.00

Now for the compound whose pIC50 we want.
Fill blank: measured pIC50 of the compound "CCn1c(-c2cccnc2[C@H](C)OC)c2c3cc(ccc31)-c1csc(n1)C[C@H](NC(=O)[C@H](C(C)C)N(C)C(=O)N1CC[C@@H](F)[C@H](N)C1)C(=O)N1CCC[C@H](N1)C(=O)OCC(C)(C)C2" is ____.
6.00 to 7.00

###

Target: KRAS G13D (Homo sapiens (Human), UniProt P01116+P62937, G13D)
Sequence (P01116 other isoform, or with tags, fused parts or gaps G13D): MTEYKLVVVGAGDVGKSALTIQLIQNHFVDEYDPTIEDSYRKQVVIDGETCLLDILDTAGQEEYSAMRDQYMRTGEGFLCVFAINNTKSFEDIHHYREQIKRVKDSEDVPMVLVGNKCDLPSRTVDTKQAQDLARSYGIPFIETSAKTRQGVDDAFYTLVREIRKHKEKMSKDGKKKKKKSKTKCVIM
Sequence (P62937 whole entry): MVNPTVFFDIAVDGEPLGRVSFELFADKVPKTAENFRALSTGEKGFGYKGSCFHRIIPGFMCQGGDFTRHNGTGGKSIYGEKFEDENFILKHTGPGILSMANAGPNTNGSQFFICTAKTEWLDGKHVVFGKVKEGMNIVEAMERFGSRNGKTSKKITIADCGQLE
Test: Ras-Raf disruption/FRET/MOA assay (BRAF RBD, Cyclophilin A)
Format: biochemical
Conditions: read-out: KRAS G13D FRET data IC50
So I've got a bunch of compounds here, and I need their IC50 values.

compound | experimental-system | IC50
CCn1c(-c2cnccc2COC)c2c3cc(ccc31)-c1cc(O)cc(c1)C[C@H](NC(=O)[C@H](C(C)C)N1CCCC1=O)C(=O)N1CCC[C@H](N1)C(=O)OCC(C)(C)C2 | KRAS G13D (Homo sapiens (Human), UniProt P01116+P62937, G13D) | 0.1 to 1 µM
CCn1c(-c2cccnc2[C@H](C)OC)c2c3cc(ccc31)-c1cc(O)cc(c1)C[C@H](NC(=O)C13CCCC1C3(F)F)C(=O)N1CCC[C@H](N1)C(=O)OCC(C)(C)C2 (stereo partly drawn) | KRAS G13D (Homo sapiens (Human), UniProt P01116+P62937, G13D) | 1 to 10 µM
CCn1c(-c2cccnc2[C@H](C)OC)c2c3cc(ccc31)-c1csc(n1)C[C@H](NC(=O)[C@H](C(C)C)N(C)C(=O)N1CC[C@H](O)C1)C(=O)N1CCC[C@H](N1)C(=O)OCC(C)(C)C2 | KRAS G13D (Homo sapiens (Human), UniProt P01116+P62937, G13D) | 0.1 to 1 µM

List IC50 for every entry below, keeping the order given.
1. CCn1c(-c2cccnc2[C@H](C)OC)c2c3cc(ccc31)-c1csc(n1)C[C@H](NC(=O)[C@@H]1CCO1)C(=O)N1CCC[C@H](N1)C(=O)OCC(C)(C)C2
2. CCn1c(-c2cccnc2[C@H](C)OC)c2c3cc(ccc31)-c1cc(O)cc(c1)C[C@H](NC(=O)C(C)=C(C)C)C(=O)N1CCC[C@H](N1)C(=O)OCC(C)(C)C2
3. CCn1c(-c2cccnc2[C@H](C)OC)c2c3cc(ccc31)-c1csc(n1)C[C@H](NC(=O)[C@H](C(C)C)N(C)C(=O)N1CC[C@@H]3CN(C)C[C@@H]31)C(=O)N1CCC[C@H](N1)C(=O)OCC(C)(C)C2
4. CCn1c(-c2cccnc2[C@H](C)OC)c2c3cc(ccc31)-c1cccc(c1)C[C@H](NC(=O)[C@H](C(C)C)N(C)C(=O)[C@@H]1CCN(C3COC3)C1)C(=O)N1CCC[C@H](N1)C(=O)OCC(C)(C)C2
5. CCn1c(-c2cccnc2[C@H](C)OC)c2c3cc(ccc31)-c1cc(O)cc(c1)C[C@H](NC(=O)[C@H](C(C)C)N(C)C(=O)[C@@H]1CCCC[C@@H]1N)C(=O)N1CCC[C@H](N1)C(=O)OCC(C)(C)C2
6. CCn1c(-c2cnccc2COC)c2c3cc(ccc31)-c1cc(O)cc(c1)C[C@H](NC(=O)[C@H](C(C)C)N(C)C(=O)c1ncc[nH]1)C(=O)N1CCC[C@H](N1)C(=O)OCC(C)(C)C2

1 to 10 µM
1 to 10 µM
1 to 10 µM
1 to 10 µM
0.01 to 0.1 µM
0.1 to 1 µM

List IC50 for every entry below, keeping the order given.
1. CCn1c(-c2cccnc2[C@H](C)OC)c2c3cc(ccc31)-c1csc(n1)C[C@H](NC(=O)[C@H](C(C)C)N(C)C(=O)N1CCC1C(=O)O)C(=O)N1CCC[C@H](N1)C(=O)OCC(C)(C)C2 (stereo partly drawn)
2. CCn1c(-c2cccnc2[C@H](C)OC)c2c3cc(ccc31)-c1cc(O)cc(c1)C[C@H](NC(=O)[C@H](C(C)C)N(C)C(=O)[C@@H]1C[C@@H]1C)C(=O)N1CCC[C@H](N1)C(=O)OCC(C)(C)C2
3. CCn1c(-c2cccnc2[C@H](C)OC)c2c3cc(ccc31)-c1csc(n1)C[C@H](NC(=O)[C@H](C(C)C)N(C)C(=O)N(C)C[C@H]1CCCN1C)C(=O)N1CCC[C@H](N1)C(=O)OCC(C)(C)C2
4. CCn1c(-c2cccnc2[C@H](C)OC)c2c3cc(ccc31)-c1csc(n1)C[C@H](NC(=O)[C@H](C(C)C)N(C)C(=O)N1CC(OC)C1)C(=O)N1CCC[C@H](N1)C(=O)OCC(C)(C)C2 [Compound A205]
5. CCn1c(-c2cccnc2[C@H](C)OC)c2c3cc(ccc31)-c1cc(O)cc(c1)C[C@H](NC(=O)[C@H](C(C)C)N(C)C(=O)C1CC1)C(=O)N1CCC[C@H](N1)C(=O)OCC(C)(C)C2
6. CCn1c(-c2cnccc2COC)c2c3cc(ccc31)-c1cc(O)cc(c1)C[C@H](NC(=O)[C@H](C(C)C)N(C)C(=O)CNC(=N)N)C(=O)N1CCC[C@H](N1)C(=O)OCC(C)(C)C2
7. CCn1c(-c2cccnc2[C@H](C)OC)c2c3cc(ccc31)-c1cc(O)cc(c1)C[C@H](NC(=O)[C@H](C(C)C)N(C)C(=O)C1(C(=O)O)CC1)C(=O)N1CCC[C@H](N1)C(=O)OCC(C)(C)C2
8. CCn1c(-c2cc(N3CCN(C)CC3)cnc2[C@H](C)OC)c2c3cc(ccc31)-c1csc(n1)C[C@H](NC(=O)[C@H](C(C)C)N(C)C(=O)[C@@H]1OCC[C@@H]1c1ccncc1)C(=O)N1CCC[C@H](N1)C(=O)OCC(C)(C)C2

1: > 10 µM; 2: 0.01 to 0.1 µM; 3: 0.1 to 1 µM; 4: 0.1 to 1 µM; 5: 0.01 to 0.1 µM; 6: 0.1 to 1 µM; 7: > 10 µM; 8: 0.1 to 1 µM

Please state recorded IC50 (tested on KRAS G13D (Homo sapiens (Human), UniProt P01116+P62937, G13D)) of "CCn1c(-c2cccnc2[C@H](C)OC)c2c3cc(ccc31)-c1cc(O)cc(c1)C[C@H](NC(=O)[C@H](C(C)C)N(C)C(=O)[C@@H]1NC[C@@H]3C[C@@H]31)C(=O)N1CCC[C@H](N1)C(=O)OCC(C)(C)C2"
0.01 to 0.1 µM

From: patent US20250195521A1
